src = PubChem BioAssay (EPA / NIEHS)

Test: APR_HepG2_MitoMass_72hr: Apredica 72-hour HepG2 Assay for Mitochondrial Mass (AID 2282924);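 note: MitoTracker Red CMXRos stain intensity per cell imaged as mitochondrial mass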
Conditions: high-content imaging, actives raise or lower the signal
Active and inactive are the calls of the source. Rule for the calls: active = hit-call score of the fitted dose curve at least 0.9, where 1 is the maximum; inactive = score below 0.9.
Permitted responses: T = active, F = inactive

1) O=C(Nc1ccc([N+](=O)[O-])cc1Cl)c1cc(Cl)ccc1O ... F
2) CCCCOC(=O)[C@@H](C)Oc1ccc(Oc2ccc(C(F)(F)F)cn2)cc1 ... F
3) COc1c(Cl)ccc(Cl)c1C(=O)O ... F

Please indicate how the test categorized CCCOC(=O)NCCCN(C)C .
F

Please indicate how the test categorized COC(=O)c1ccc(I)cc1S(=O)(=O)NC(=O)Nc1nc(C)nc(OC)n1 .
F

Please indicate how the test categorized CC(=O)[C@H]1CC[C@H]2[C@@H]3CCC4=CC(=O)CC[C@]4(C)[C@H]3CC[C@]12C .
F

Please indicate how the test categorized COC(=O)CSc1cc(N=c2sc(=O)n3n2CCCC3)c(F)cc1Cl .
F

Please indicate how the test categorized CCCN(CCC)c1c([N+](=O)[O-])cc(C(F)(F)F)c(N)c1[N+](=O)[O-] .
F
